Listed here: items and their measured melting point.
Counter-ions that a name gives are not always drawn.
Note: unit °C is implicit; provide only the numeric part.

Answered cases to consult:
molecule	numeric readout
CNCCn1c(=O)n(C2CCN(C3(c4ccccc4)CCCCCC3)CC2)c2ccccc21 (as salt: hydrochloride)	217
O=c1[nH]c2ccccc2n1C1CCN(C2(c3ccccc3)CCCCCCC2)CC1 (as salt: hydrochloride)	196

Moving on to the next molecule.
Exercise: // returns reported melting point for input O=c1[nH]c2ccccc2n1C1CCN(C2(c3ccccc3)CCCCCCCCC2)CC1 (as salt: hydrochloride)
Key: 217

====

Where a name gives a salt, the structure may show the parent alone.
reported property: melting point

Here is how some compounds turned out for melting point.
compound	melting point
COc1cccc(C2(N3CCC(n4c(=O)[nH]c5ccccc54)CC3)CCCCCC2)c1 (as salt: hydrochloride)	216 to 218 °C
COc1ccccc1C1(N2CCC(n3c(=O)[nH]c4ccccc43)CC2)CCCCCC1 (as salt: hydrochloride)	167 to 173 °C

Exercise: Consider the compound O=c1[nH]c2ccccc2n1C1CCN(C2(c3ccccc3)CCCCCCCCCC2)CC1 (as salt: hydrochloride) and give its measured melting point.
Key: 196 to 202 °C

Exercise: Look at this compound and give its reported melting point. O=C(c1ccccc1)c1ccc2c(c1)[nH]c(=O)n2C1CCN(C2(c3ccccc3)CCCCCC2)CC1 (as salt: hydrochloride)
Key: 118 to 122 °C

====

Readings of melting point for the listed compounds
Counter-ions that a name gives are not always drawn.

compound	reported property	result
CC(C)(C)C1CCC(c2ccccc2)(N2CCC(n3c(=O)[nH]c4ccccc43)CC2)CC1 (centres unmarked) (as salt: hydrochloride)	melting point	218 to 219 °C
COc1ccc(C2(N3CCC(n4c(=O)[nH]c5ccccc54)CC3)CCCCC2)cc1 (as salt: hydrochloride)	melting point	193 to 197 °C
O=c1[nH]c2ccccc2n1C1CCN(C2(c3ccc(F)cc3)CCCCCC2)CC1 (as salt: hydrochloride)	melting point	185 to 192 °C
CCCC1(N2CCC(n3c(=O)[nH]c4ccccc43)CC2)CCC2(CCCCC2)CC1 (as salt: hydrochloride)	melting point	240 to 247 °C
O=c1[nH]c2ccccc2n1C1CCN(C2(c3cccc(F)c3)CCCCCC2)CC1 (as salt: hydrochloride)	melting point	196 to 199 °C

Exercise: Using the record for CC1(C)CCC(c2ccccc2)(N2CCC(n3c(=O)[nH]c4ccccc43)CC2)CC1 (as salt: hydrochloride) , report its melting point.
Key: 256 °C

Exercise: # input compound: O=c1[nH]c2ccccc2n1C1CCN(C2(c3ccccc3)CCCCCCCC2)CC1 (as salt: hydrochloride) ; wanted: its melting point
Key: 187 °C

Exercise: melting point for O=c1[nH]c2ccccc2n1C1CCN(C2(c3ccccc3)CCCCCCCCCCC2)CC1 (as salt: hydrochloride) ?
Key: 251 °C
